Kindly supply the reported z-score values for the records listed here.
# systemName: Homeobox protein Hox-A13 (Mus musculus)
# experimentDescription: inhibitors of HoxA13-DNA binding, primary screen, biochemical, fluorescence polarization, labeled oligonucleotide (AID 1185)
# conditionLabel: 15 min, higher = more signal, called active from +8 up or from −8 down
Activity calls are given as the source filed them.

Guide cases for z-score, answers given:
compound	result
COC(=O)c1ccc(OC)c(/C=C\CC(OC(=O)c2ccncc2)c2ccccc2)c1 (centres undefined)	-5.02 (inactive)
C=C(/C=C\CNS(=O)(=O)c1ccc(C)cc1)[C@H](O)[C@H]1CCCN1S(=O)(=O)c1ccccc1[N+](=O)[O-]	-5.5 (inactive)
O=C1C2C=CC(C(O)C(c3ccccc3)c3ccccc3)N(Nc3ccccc3F)C2C(=O)N1c1ccccc1 (centres undefined)	-2.65 (inactive)

Let us examine a further case.
The compound listed as COC(=O)[C@@]1(Cc2ccc(F)cc2)[C@H]2c3cc(C(=O)N(C)C)n(Cc4ccsc4Br)c3C[C@H]2CN1C(=O)c1ccccc1 shows z-score equal to -5.36 (inactive)

----------
# systemName: Fibroblast growth factor 2 (Homo sapiens) (UniProt P09038)
# Sequence (P09038 whole entry, looked up): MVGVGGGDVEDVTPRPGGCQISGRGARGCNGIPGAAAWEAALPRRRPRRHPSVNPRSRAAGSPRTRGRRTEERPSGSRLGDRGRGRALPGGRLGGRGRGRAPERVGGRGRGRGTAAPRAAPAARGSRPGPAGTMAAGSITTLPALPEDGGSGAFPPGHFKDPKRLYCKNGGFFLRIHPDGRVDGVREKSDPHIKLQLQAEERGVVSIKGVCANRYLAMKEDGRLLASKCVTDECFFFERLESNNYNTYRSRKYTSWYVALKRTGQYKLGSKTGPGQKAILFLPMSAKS
# experimentDescription: FGF2 binders on small-molecule microarrays, primary screen, biochemical, small-molecule microarray, 635/667 nm fluorescence (AID 1133)
# conditionLabel: small-molecule microarray binding, FGF2, fluorescence 635/667; higher = more signal
Kindly return criterion met if reported composite z-score is no lower than 0.5; return criterion not met if it is lower.

Would you please look over these solved cases?
compound	classification
CCCC1(C(=O)OC)C=C2C(=C(C(C)C)C(=O)C2C)CN1 (stereo unspecified)	criterion not met
CC(C)N1CC=CC23O[C@@H]4/C=C\CCCOC(=O)C4[C@H]2C(=O)N(C(C)CO)[C@@H]3C1=O (stereo partly specified)	criterion not met
COCCCNC(=O)[C@@]1(Cc2ccccc2I)c2ccccc2C(=O)N(Cc2ccccc2C(F)(F)F)[C@H]1c1ccc(CO)cc1	criterion not met

Query: hey, is composite z-score for this one >= 0.5? COc1cc(Cc2cc3c(c(-c4ccccc4)n2)[Si](C(C)C)(C(C)C)OC3)cc(OC)c1OC
Response: criterion met

Query: hey, is composite z-score for this one >= 0.5? CC[C@@H](O[Si](C#C[Si](C(C)C)(C(C)C)C(C)C)(C(C)C)C(C)C)c1cn(Cc2cccc(Cl)c2)nn1
Response: criterion not met

Query: hey, is composite z-score for this one >= 0.5? CC(C)N1C(=O)[C@@]2(Cc3ccccc31)c1ccccc1C(=O)N(Cc1ccccc1)[C@H]2c1ccc(CO)cc1
Response: criterion not met

Query: hey, is composite z-score for this one >= 0.5? COCCCNC(=O)[C@@]1(Cc2ccccc2I)c2ccccc2C(=O)N(C2CCCCC2)[C@H]1c1ccc(CO)cc1
Response: criterion met

Query: hey, is composite z-score for this one >= 0.5? COC(=O)[C@@]1(Cc2ccc(F)cc2)[C@H]2c3cc(C(=O)N(C)C)n(Cc4ccc(C(F)(F)F)nc4)c3C[C@H]2CN1C(=O)c1ccccc1
Response: criterion not met

Query: hey, is composite z-score for this one >= 0.5? O=C(N1CCOCC1)[C@]1(CCS(=O)(=O)c2ccccc2)N=C(c2ccc(OCCCO)cc2)O[C@@H]1c1ccccc1
Response: criterion not met

Query: hey, is composite z-score for this one >= 0.5? C=C[C@@H](CO)NS(=O)(=O)c1ccc(Br)cc1
Response: criterion not met

Query: hey, is composite z-score for this one >= 0.5? CO[C@H]1O[C@H](CO)[C@@H](OC(=O)CCc2ccccc2)[C@@H]2OC(=O)[C@@H](Cc3ccc4ccccc4c3)C/C=C/C[C@H](Cc3ccc4ccccc4c3)C(=O)O[C@@H]12
Response: criterion not met

Query: hey, is composite z-score for this one >= 0.5? CCOC(=O)C[C@H]1[C@H](OC(=O)c2ccc(-c3ccccc3)cc2)[C@@H](NC(=O)C2CCCCC2)c2cc(OCCCO)ccc2N1C(=O)Cc1ccc(OC)cc1
Response: criterion not met

Query: hey, is composite z-score for this one >= 0.5? COCCCNC(=O)[C@]1(Cc2ccccc2N=[N+]=[N-])N=C(c2ccc(OCCCO)cc2)O[C@@H]1c1ccccc1
Response: criterion met

Query: hey, is composite z-score for this one >= 0.5? CC(C)c1ccc(NN2C(C(O)C3CCCCC3)C=CC3C(=O)N(c4ccccc4)C(=O)C32)cc1 (stereo unspecified)
Response: criterion met

Query: hey, is composite z-score for this one >= 0.5? O=C1N(Cc2ccccc2)c2ccccc2C[C@@]12N=C(c1ccc(OCCCO)cc1)O[C@H]2c1ccccc1
Response: criterion met

Query: hey, is composite z-score for this one >= 0.5? COC(=O)Cn1c(C(=O)N(C)C)cc2c1C[C@H]1CN(C(=O)c3ccccc3)[C@@](Cc3ccccc3)(C(=O)OC)[C@@H]21
Response: criterion not met
